- Test system: Triticum aestivum
- test-details: Crop compatibility post-emergence (greenhouse pot trial)
- Format: in vivo
- stated-conditions: application rate 5 g/ha
This section presents compounds with their documented Triticum aestivum (Efficacy in %) values.
parameter-measured: Triticum aestivum (Efficacy in %)

1. Cc1c(C(F)(F)F)n(C)c(=O)n(-c2cc(SCC(C)(C)C(=O)OCC3CCCO3)c(Cl)cc2F)c1=O (stereo not drawn) | 20
2. CCOCCOC(=O)C(C)Sc1cc(-n2c(=O)cc(C(F)(F)F)n(C)c2=O)c(F)cc1Cl (stereo not drawn) | 20
3. COCCNC(=O)C(C)Sc1cc(-n2c(=O)cc(C(F)(F)F)n(C)c2=O)c(F)cc1Cl (stereo not drawn) | 20
